Just for reference, patent US20250179031A1 is where these values come from.

Test system: human 20S proteasome, caspase-like (Casp-L) site
Construct: purchased Boston Biochem, Inc. (Cambridge, MA)
procedureSummary: Fluorogenic peptide degradation 20S proteasome activity assay, Z-LLE-AMC (Casp-L activity)
Type: biochemical
settings: Z-LLE-AMC substrate
Description: Activity assays were carried out in a 100 μL reaction volume. […] Fluorogenic substrates (5 μL) were then added and the enzymatic activity measured at 37° C. on a SpectraMax M5e spectrometer by measuring the change in fluorescence unit per minute for 1 hour at 380-460 nm. The fluorescence units for the vehicle control were set at a 100%, and the ratio of drug-treated sample set to that of vehicle control was used to calculate the fold change in enzymatic activity. […]
readoutName: Max Fold, Casp-L (fold)
Answer in fold, number only, no unit symbol.

Look over these answered cases.
1) COc1ccc2c(c1)N=C(c1ccccc1)N(C1CCN(C)CC1)C2c1ccccc1 (stereo not shown) [Compound 17] | 0.8
2) COc1ccc2c(c1)N=C(c1ccccc1)N(C1CCN(Cc3ccccc3)CC1)C2c1ccccc1 (stereo not shown) [Compound 18] | 10.6
3) COc1ccc2c(c1)N=C(c1ccccc1)N(Cc1ccccc1)C2c1ccccc1 (stereo not shown) [Compound 2] | 13.4

With those in mind, consider the next molecule.
Exercise: Item under review: COc1ccc2c(c1)N=C(c1ccccc1)N(c1ccccc1)C2c1ccccc1 (stereo not shown) [Compound 10] . Reported Max Fold, Casp-L?
Key: 15.3
